test system: LOX IMVI; assay: NCI tumour cell line growth inhibition, 48 h
Activity calls are given as the source filed them. Cut-off read from the data, not from the text of the source: active = GI50 up to about 1.1 µM and inactive = higher.
A collection of compounds and their measured GI50

For orientation, consider the following solved cases.
{"compound": "Cc1c(N)c(C#N)c2n(C)c3ncccc3n2c1=O", "experimental value": "> 100 µM (inactive)"}
{"compound": "O=c1[nH]cnc2c(COCCO)c[nH]c12", "experimental value": "> 100 µM (inactive)"}
{"compound": "N#CC(NNC(=O)c1c(Cl)c(Cl)c(Cl)c(Cl)c1-c1nc2cc(C(=O)c3ccccc3)ccc2[nH]1)c1cccc(Oc2ccccc2)c1 (stereo not drawn)", "experimental value": "37.8 µM (inactive)"}
{"compound": "Cc1nc(C(N)=S)sc1C(=O)CC(=O)C(=O)Nc1nc2ccccc2[nH]1", "experimental value": "> 100 µM (inactive)"}
{"compound": "Nc1ncnc2c1ncn2[C@@H]1C[C@@H]1CO", "experimental value": "> 100 µM (inactive)"}
{"compound": "CCc1ccccc1NC(=O)/C(=N/O)C(C)=O", "experimental value": "> 100 µM (inactive)"}
{"compound": "Nc1c2ccccc2nc2c(C(=O)Nc3ccc(S(N)(=O)=O)cc3)cccc12", "experimental value": "40.1 µM (inactive)"}
{"compound": "CN(CN1C(=O)C2Cc3ccccc3CN2C1=O)c1ccccn1 (stereo not drawn)", "experimental value": "> 100 µM (inactive)"}

Exam item: Note GI50 for the compound shown: Cc1ccc(S(=O)(=O)N2CC2CCCCC=O)cc1 (stereo not drawn)
Marked response: 20.1 µM (inactive)

Exam item: Using known records, supply GI50 for [N-]=[N+]=NC[C@H]1OCO[C@H](CN=[N+]=[N-])[C@@H](OCCOCCCl)[C@@H]1OCCOCCCl
Marked response: > 100 µM (inactive)

Exam item: Check the records and state GI50 for O=c1n(CCO)nc2n1CCCN2
Marked response: > 100 µM (inactive)

Exam item: Please report the measured GI50 for C[N+](C)(C)CC(=O)N/N=C(\C(=O)Nc1ccc(Cl)cc1)C1C(=O)N(c2ccccc2)N=C1N (stereo not drawn)
Marked response: > 100 µM (inactive)

Exam item: Item CC1(C)C(=O)N(O)C(C)(C)N1O : provide GI50
Marked response: > 10 µM (inactive)

====

test system: SNB-78; assay: NCI tumour cell line growth inhibition, 48 h
Activity calls are given as the source filed them. No stated cut-off is given here; in the data, active = GI50 up to about 1.1 µM and inactive = higher.
Parameter: GI50. Scope: all listed entries.

{"compound": "CSC(=Nc1nnc(-c2ccc([N+](=O)[O-])cc2)s1)SC", "system under test": "SNB-78", "GI50": "12.4 µM (inactive)"}
{"compound": "C[C@H]1C(=O)c2c(cc(O)c(C3OC(CO)C(O)C(O)C3O)c2O)OC1c1ccc(O)c(O)c1 (stereo partly drawn)", "system under test": "SNB-78", "GI50": "> 100 µM (inactive)"}

Exam item: Determine its reported GI50: CC1=CC2CC(C)=C(CC[C@]3(C)CC[C@H]([C@@H](C)C(=O)O)OO3)C(C)(C)C2CC1 (stereo partly drawn)
Marked response: 1.51 µM (inactive)

====

system: RXF 393; assay: NCI tumour cell line growth inhibition, 48 h
Activity calls are given as the source filed them. No stated cut-off is given here; in the data, active = GI50 up to about 1.1 µM and inactive = higher.
Just give me one of these, please: Y = active, N = inactive

Reference set, count: 3
{"item smiles": "COc1cc2c(cc1OCCCCN1CCN(CCCCOc3cc4c(cc3OC)C(=O)N3CCC[C@H]3C=N4)CC1)N=C[C@@H]1CCCN1C2=O", "label value": "Y"}
{"item smiles": "Cc1cc(N(CCC#N)CCC#N)ccc1/C=C(\\NC(=O)/C=C/c1ccccc1)C(=O)NN", "label value": "N"}
{"item smiles": "CN(C)C(=S)/N=C1\\SC(=N\\c2ccccc2)/C(=N/c2ccccc2)N1c1ccc([N+](=O)[O-])cc1", "label value": "N"}

Field: next compound
Exam item: Check the results log: what was the call for CCOC(=O)c1c2ccc(/C=C/C(=O)OC)ccc-2c(C(=O)OCC)c1N ?
Marked response: N

====

Parameter GI50: see the listing below.
system: UACC-257; experiment: NCI tumour cell line growth inhibition, 48 h
Active and inactive are the calls of the source. Rule as the data show it: active = GI50 up to about 1.1 µM and inactive = higher.

Solved entries (count: 3):
{"compound": "O=C1C=C2SC3C[C@@]24CC1(O)[N+]1=c2c4c(c(O)c4c2=C(C=N4)CC1)N3", "value kind": "GI50", "experimental value": "1.16 µM (inactive)"}
{"compound": "N#CC(NNC(=O)c1c(Cl)c(Cl)c(Cl)c(Cl)c1-c1nc2cc(C(=O)c3ccccc3)ccc2[nH]1)c1cccc(Oc2ccccc2)c1 (centres undefined)", "value kind": "GI50", "experimental value": "38.1 µM (inactive)"}
{"compound": "CC(=O)OC(CC1(C)C(C)CCC23COC(=O)C2=CCCC31)c1ccoc1 (centres undefined)", "value kind": "GI50", "experimental value": "24 µM (inactive)"}

Exam item: Look up and report measured GI50 for this entry: O=C1/C(=C/c2ccc(OC(=O)c3ccc(Cl)cc3)cc2)CCC/C1=C\c1ccc(OC(=O)c2ccc(Cl)cc2)cc1
Marked response: > 100 µM (inactive)

====

tested on: MDA-MB-435; experiment: NCI tumour cell line growth inhibition, 48 h
Active and inactive are the calls of the source. Cut-off read from the data, not from the text of the source: active = GI50 up to about 1.1 µM and inactive = higher. Where a SMILES comes first, the peptide text is derived from it.
Valid outcomes are listed here; reply with one: active, inactive

Solved cases (3 shown):
{"molecule": "CCOC(=O)C(SCCO)C(C(=O)OCC)n1cnc2c(N)ncnc21 (centres undefined)", "label value": "inactive"}
{"molecule": "O=[N+]([O-])c1ccc2c3c1[C@@H]1O[C@@H]1c1cccc(c1-3)[C@@H]1O[C@H]21", "label value": "inactive"}
{"molecule": "COc1ccc(OC)c2c3c([nH]c12)C(=O)Nc1nc(N)nc(N)c1C3", "label value": "active"}

# evaluate next
Exam item: State the result this test recorded for CC(C)CC(NC(=O)C(Cc1ccccc1)NC(=O)C(Cc1c[nH]c2ccccc12)NC(=O)CNC(=O)C(N)Cc1ccc(O)cc1)C(=O)O (centres undefined) (H-YGWFL-OH; configuration not given here) .
Marked response: inactive

====

test system: IGROV-1; experiment: NCI tumour cell line growth inhibition, 48 h
Calls of active or inactive are those of the source. No stated cut-off is given here; in the data, active = GI50 up to about 1.1 µM and inactive = higher.
Hi there, use one of these labels in your reply, thanks! active, inactive

{"molecule": "C/C(=N\\Nc1nc2ccccc2o1)c1cc2ccccc2cn1", "label value": "active"}
{"molecule": "COc1cc(/C=C2\\N=C(c3ccccc3)N(/N=C3\\C(=O)Nc4ccccc43)C2=O)cc(OC)c1OC", "label value": "inactive"}
{"molecule": "CN(C)CCNc1ccc(C(=O)NCCCN(C)CCCNC(=O)c2ccc(NCCN(C)C)c3c(=O)c4ccccc4[nH]c23)c2[nH]c3ccccc3c(=O)c12", "label value": "active"}
{"molecule": "COc1cc(CCCC(O)COc2cccc3c2C2(O)CCCCCC32)cc(OC)c1 (centres undefined)", "label value": "inactive"}
{"molecule": "COC(=O)C1=CC2C(=O)OC1CC2C#N (centres undefined)", "label value": "inactive"}
{"molecule": "Cc1ccc(SCC(OCn2cnc3c(N)ncnc32)[C@H](C)F)cc1 (some centres undefined)", "label value": "inactive"}
{"molecule": "CC(=O)Oc1ccc2c(c1)c1c(OC(C)=O)c3ccccc3c(OC(C)=O)c1n2Cc1cccc(C)c1", "label value": "inactive"}
{"molecule": "COc1cccc(NC(=O)CC(=O)N2N=C(C)C(/N=N\\c3ccc(S(=O)(=O)c4ccc(/N=N/C5C(=O)N(C(=O)CC(=O)Nc6cccc(OC)c6)N=C5C)cc4)cc3)C2=O)c1 (centres undefined)", "label value": "inactive"}

Exam item: Called result for O=C1/C(=C/c2ccc(Cl)cc2)N=C(c2ccccc2)N1C1Nc2cc3c(cc2S1)NC(N1C(=O)/C(=C/c2ccc(Cl)cc2)N=C1c1ccccc1)S3 (centres undefined)
Marked response: inactive

Exam item: Recorded test outcome, item Cc1ccc(C2=NN=C3C(c4ccccc4)=Nc4ccccc4N3C2)cc1
Marked response: inactive

Exam item: Query: recorded result category for c1csc(-c2cscc2-c2cccs2)c1 in this test
Marked response: inactive

Exam item: What did the test return for O=C(Cn1c(=O)oc2ccc(C(=O)c3ccc(F)cc3)cc21)c1ccccc1 ?
Marked response: inactive

====

tested on: NCI-H522; test: NCI tumour cell line growth inhibition, 48 h
Activity calls are given as the source filed them. No stated cut-off is given here; in the data, active = GI50 up to about 1.1 µM and inactive = higher.
Respond using exactly one of the listed classes: 1 (active), -1 (inactive)

Field: example entries. Status: answers known.
{"compound": "CCOC(=O)C1C(c2ccc3c(c2)OCO3)c2c(n[nH]c2O)CC1(O)OCC (stereo unspecified)", "label value": -1}
{"compound": "C=C1C(C2(C)C(OC(C)=O)CC(=O)OC(C)(COC(C)=O)C2CC(=O)OC)C(OC=O)C(OC(=O)C(O)C(C)CC)C2(C)C(c3ccoc3)CC(=O)C12O (stereo unspecified)", "label value": 1}
{"compound": "COc1cc(-c2ccccc2)c(OC)cc1CCl", "label value": -1}
{"compound": "O=c1c2ccccc2c(=O)c2c1c1[nH]c3ccccc3c1c1c(=O)c3ccccc3c(=O)c21", "label value": -1}
{"compound": "Cc1c/c(=N\\c2ccc3c(c2)c(N)cc(C)[n+]3C)nc(N)n1C", "label value": -1}
{"compound": "O=C1C=CC(=O)N1c1ccc(I)cc1", "label value": -1}
{"compound": "COC(=O)c1c(C)cc2c(c1O)C1(O)C(=O)c3cc4c(c(O)c3C(=O)C1(OC)C(O)C2)C(=O)C=C(NC1OC(C)C(OC)C(O)C1OC)C4=O (stereo unspecified)", "label value": 1}
{"compound": "C=CC(C)(C)c1c(OC)oc2ccc(OC)c(C)c2c1=O", "label value": -1}
{"compound": "COc1cc2c(cc1OC)C1Cc3ccccc3CN1CCC2 (stereo unspecified)", "label value": -1}
{"compound": "NCCSS(=O)(=O)CCN", "label value": -1}

Next compound, please.
Exam item: State the result this test recorded for Cc1ccc(NC(=O)C(=O)C2C(=O)NC(=O)NC2=O)c(C)c1 .
Marked response: -1
